src = BigSolDB 2.1

EXPERIMENTAL PARAMETERS: in ethanol, 283 K
Listing of recorded solubility (mole fraction) by entry.
MEASURE: solubility (mole fraction)

COMPOUND STRING: O=S(=O)([N-]Cl)c1ccccc1.[Na+]
MEASURED VALUE: 0.0193
//
COMPOUND STRING: Cc1ccc(S(=O)(=O)[N-]Cl)cc1.[Na+]
MEASURED VALUE: 0.0221

###

EXPERIMENTAL PARAMETERS: in water, 323 K

COMPOUND STRING: O=S(=O)([N-]Cl)c1ccccc1.[Na+]
solubility (mole fraction): 0.0554
--
COMPOUND STRING: Cc1ccc(S(=O)(=O)[N-]Cl)cc1.[Na+]
solubility (mole fraction): 0.0477

###

EXPERIMENTAL PARAMETERS: in water, 308.2 K
MEASURE: solubility (mole fraction)

COMPOUND STRING: O=S(=O)([N-]Cl)c1ccccc1.[Na+]
MEASURE: solubility (mole fraction)
MEASURED VALUE: 0.0241
--
COMPOUND STRING: Cc1ccc(S(=O)(=O)[N-]Cl)cc1.[Na+]
MEASURE: solubility (mole fraction)
MEASURED VALUE: 0.0218

###

EXPERIMENTAL PARAMETERS: in n-propanol, 308.2 K

COMPOUND STRING: O=S(=O)([N-]Cl)c1ccccc1.[Na+]
solubility (mole fraction): 0.0188
--
COMPOUND STRING: Cc1ccc(S(=O)(=O)[N-]Cl)cc1.[Na+]
solubility (mole fraction): 0.0156

###

EXPERIMENTAL PARAMETERS: in water, 313 K
MEASURE: solubility (mole fraction)

COMPOUND STRING: Cc1ccc(S(=O)(=O)[N-]Cl)cc1.[Na+]
MEASURED VALUE: 0.0284
--
COMPOUND STRING: O=S(=O)([N-]Cl)c1ccccc1.[Na+]
MEASURED VALUE: 0.0316

###

EXPERIMENTAL PARAMETERS: in ethanol, 308 K
MEASURE: solubility (mole fraction)

COMPOUND STRING: O=S(=O)([N-]Cl)c1ccccc1.[Na+]
MEASURE: solubility (mole fraction)
MEASURED VALUE: 0.0422
//
COMPOUND STRING: Cc1ccc(S(=O)(=O)[N-]Cl)cc1.[Na+]
MEASURE: solubility (mole fraction)
MEASURED VALUE: 0.0388

###

Listing of recorded solubility (mole fraction) by entry.
EXPERIMENTAL PARAMETERS: in sec-butanol, 293 K
MEASURE: solubility (mole fraction)

COMPOUND STRING: Cc1ccc(S(=O)(=O)[N-]Cl)cc1.[Na+]
MEASURE: solubility (mole fraction)
MEASURED VALUE: 0.00322

COMPOUND STRING: O=S(=O)([N-]Cl)c1ccccc1.[Na+]
MEASURE: solubility (mole fraction)
MEASURED VALUE: 0.00383

###

Listing of recorded solubility (mole fraction) by entry.
EXPERIMENTAL PARAMETERS: in ethanol, 313 K
MEASURE: solubility (mole fraction)

COMPOUND STRING: Cc1ccc(S(=O)(=O)[N-]Cl)cc1.[Na+]
MEASURED VALUE: 0.0441
--
COMPOUND STRING: O=S(=O)([N-]Cl)c1ccccc1.[Na+]
MEASURED VALUE: 0.0486

###

EXPERIMENTAL PARAMETERS: in water, 278 K
MEASURE: solubility (mole fraction)

COMPOUND STRING: O=S(=O)([N-]Cl)c1ccccc1.[Na+]
MEASURED VALUE: 0.0074

COMPOUND STRING: Cc1ccc(S(=O)(=O)[N-]Cl)cc1.[Na+]
MEASURED VALUE: 0.00684

###

Listing of recorded solubility (mole fraction) by entry.
EXPERIMENTAL PARAMETERS: in sec-butanol, 323 K
MEASURE: solubility (mole fraction)

COMPOUND STRING: O=S(=O)([N-]Cl)c1ccccc1.[Na+]
MEASURE: solubility (mole fraction)
MEASURED VALUE: 0.015

COMPOUND STRING: Cc1ccc(S(=O)(=O)[N-]Cl)cc1.[Na+]
MEASURE: solubility (mole fraction)
MEASURED VALUE: 0.0141

###

Listing of recorded solubility (mole fraction) by entry.
EXPERIMENTAL PARAMETERS: in n-propanol, 298 K
MEASURE: solubility (mole fraction)

COMPOUND STRING: O=S(=O)([N-]Cl)c1ccccc1.[Na+]
MEASURED VALUE: 0.0106
--
COMPOUND STRING: Cc1ccc(S(=O)(=O)[N-]Cl)cc1.[Na+]
MEASURED VALUE: 0.0109

###

EXPERIMENTAL PARAMETERS: in water, 318 K
Listing of recorded solubility (mole fraction) by entry.

COMPOUND STRING: Cc1ccc(S(=O)(=O)[N-]Cl)cc1.[Na+]
solubility (mole fraction): 0.037
//
COMPOUND STRING: O=S(=O)([N-]Cl)c1ccccc1.[Na+]
solubility (mole fraction): 0.0421

###

EXPERIMENTAL PARAMETERS: in n-propanol, 293 K
Listing of recorded solubility (mole fraction) by entry.
MEASURE: solubility (mole fraction)

COMPOUND STRING: Cc1ccc(S(=O)(=O)[N-]Cl)cc1.[Na+]
MEASURED VALUE: 0.00932
--
COMPOUND STRING: O=S(=O)([N-]Cl)c1ccccc1.[Na+]
MEASURED VALUE: 0.00778

###

Listing of recorded solubility (mole fraction) by entry.
EXPERIMENTAL PARAMETERS: in sec-butanol, 298.4 K
MEASURE: solubility (mole fraction)

COMPOUND STRING: O=S(=O)([N-]Cl)c1ccccc1.[Na+]
MEASURED VALUE: 0.00481

COMPOUND STRING: Cc1ccc(S(=O)(=O)[N-]Cl)cc1.[Na+]
MEASURED VALUE: 0.00464

###

Listing of recorded solubility (mole fraction) by entry.
EXPERIMENTAL PARAMETERS: in n-propanol, 303.1 K

COMPOUND STRING: Cc1ccc(S(=O)(=O)[N-]Cl)cc1.[Na+]
solubility (mole fraction): 0.013

COMPOUND STRING: O=S(=O)([N-]Cl)c1ccccc1.[Na+]
solubility (mole fraction): 0.0142

###

EXPERIMENTAL PARAMETERS: in ethanol, 293 K
Listing of recorded solubility (mole fraction) by entry.
MEASURE: solubility (mole fraction)

COMPOUND STRING: Cc1ccc(S(=O)(=O)[N-]Cl)cc1.[Na+]
MEASURED VALUE: 0.0268

COMPOUND STRING: O=S(=O)([N-]Cl)c1ccccc1.[Na+]
MEASURED VALUE: 0.0264

###

Listing of recorded solubility (mole fraction) by entry.
EXPERIMENTAL PARAMETERS: in sec-butanol, 318 K

COMPOUND STRING: Cc1ccc(S(=O)(=O)[N-]Cl)cc1.[Na+]
solubility (mole fraction): 0.0114
--
COMPOUND STRING: O=S(=O)([N-]Cl)c1ccccc1.[Na+]
solubility (mole fraction): 0.0117

###

EXPERIMENTAL PARAMETERS: in n-propanol, 278 K
Listing of recorded solubility (mole fraction) by entry.
MEASURE: solubility (mole fraction)

COMPOUND STRING: O=S(=O)([N-]Cl)c1ccccc1.[Na+]
MEASURED VALUE: 0.00195
//
COMPOUND STRING: Cc1ccc(S(=O)(=O)[N-]Cl)cc1.[Na+]
MEASURED VALUE: 0.00503

###

EXPERIMENTAL PARAMETERS: in water, 283 K
Listing of recorded solubility (mole fraction) by entry.

COMPOUND STRING: O=S(=O)([N-]Cl)c1ccccc1.[Na+]
solubility (mole fraction): 0.00829

COMPOUND STRING: Cc1ccc(S(=O)(=O)[N-]Cl)cc1.[Na+]
solubility (mole fraction): 0.008

###

Listing of recorded solubility (mole fraction) by entry.
EXPERIMENTAL PARAMETERS: in sec-butanol, 313 K

COMPOUND STRING: O=S(=O)([N-]Cl)c1ccccc1.[Na+]
solubility (mole fraction): 0.0091
//
COMPOUND STRING: Cc1ccc(S(=O)(=O)[N-]Cl)cc1.[Na+]
solubility (mole fraction): 0.00881

###

EXPERIMENTAL PARAMETERS: in n-propanol, 323 K
MEASURE: solubility (mole fraction)

COMPOUND STRING: Cc1ccc(S(=O)(=O)[N-]Cl)cc1.[Na+]
MEASURE: solubility (mole fraction)
MEASURED VALUE: 0.0291
--
COMPOUND STRING: O=S(=O)([N-]Cl)c1ccccc1.[Na+]
MEASURE: solubility (mole fraction)
MEASURED VALUE: 0.0378
